Biological target: human GLP-1 receptor (human, UniProt P43220 24-463)
Assay: cell-based or functional assay
Numbered stars: 1 amine (or outer) side, 2 acyl side, 3 side chain; on linkers, the order of the positions; unused ones are H or OH. Square brackets hold non-standard residues; d marks the D form. Side chains are listed from the residue outwards. Ends that are not written are not given here. * marks the point of attachment. C20 diacid = O=C(O)CCCCCCCCCCCCCCCCCCC(=O)*; γGlu = O=C(O)[C@H](CCC(=O)[*:2])N[*:1]; Desaminohistidyl = O=C(CCc1c[nH]cn1)*; AEEA = NCCOCCOCC(=O)O; Aib = CC(C)(N)C(=O)O
parameter.measured: hGLP1R cAMP Rel EC50
Field: value (include unit after the number)

Below, each entry is followed by its recorded hGLP1R cAMP Rel EC50 result.
- YXEGTXTSDYSIXLDKKAQXAXIEYLIEGGPSSGAPPPS (not fully specified; Aib2; αMeF6; αMeF13 as printed (likely αMeL13); K17((2-[2-(2-Amino-ethoxy)-ethoxy]-acetyl)2-(γ-Glu)-CO-(CH2)18-CO2H); Aib20; αMeF22; C-terminal NH2) [Example 76]: 125 pM
- H[Aib]EGTFTSDYSILLDKKAQ[Aib]AFIEYLLE[Aib]GPSSGAPPPS-NH2 (not fully specified (residue 17)) [Example 15]: 33.6 pM

input: Dear colleague, please send me the reported hGLP1R cAMP Rel EC50 for [Desaminohistidyl][Aib]EGTFTSDYSILLDKK([AEEA-AEEA-γGlu-C20 diacid])AQ[Aib]AFIEYLIEGGPSSGAPPPS-NH2 (also: ψ[NHCO] bond between DesHis1 and Aib2) [Example 105] when you can.
output: 40.1 pM
